# system-tested: human RORγ (Homo sapiens)
# Construct: human RORγ, from Ser253 to Lys518; expressed in transfected cells; host or cells: CHO cells (Chinese hamster ovary), transient co-transfection with pG5-Luc
# Sequence (P51449 253-518): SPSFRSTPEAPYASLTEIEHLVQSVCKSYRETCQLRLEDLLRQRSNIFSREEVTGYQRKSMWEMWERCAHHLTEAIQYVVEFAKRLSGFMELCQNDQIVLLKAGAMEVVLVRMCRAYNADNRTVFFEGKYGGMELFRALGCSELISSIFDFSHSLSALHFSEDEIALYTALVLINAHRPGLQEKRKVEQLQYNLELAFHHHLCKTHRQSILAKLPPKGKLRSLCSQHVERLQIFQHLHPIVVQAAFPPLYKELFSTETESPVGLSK
# measurement-description: In vitro assay of inhibitory effect against RORγ transcriptional activity (GAL4-hRORγ LBD luciferase reporter gene assay in CHO cells)
# Type: cell-based
# test-parameters: GAL4-hRORγ LBD luciferase reporter, CHO cells; read-out: LUC EC50 hRORγ
pEC50: −log10 of the molar value.
metric-name: pEC50

molecule	system-tested	pEC50
CC(C)C1=CN(CC(C)C(=O)O)C(=O)N[C@@]1(C)c1ccc(CCC(C)(C)C)c(Cl)c1 (single isomer, unassigned) [Example 300]	human RORγ (Homo sapiens)	8.00
CC(C)N1C=C(CCC(=O)O)[C@](C)(c2ccc(CCC(C)(C)C)c(Cl)c2)NC1=O	human RORγ (Homo sapiens)	6.65
COc1cc(N2C=C(C(C)C)[C@](C)(c3ccc(CCC(C)(C)C)c(Cl)c3)NC2=O)ccc1C(=O)O	human RORγ (Homo sapiens)	7.77
CC(C)C1=CN(C2CC3(CC(C(=O)O)C3)C2)C(=O)N[C@@]1(C)c1ccc(CCC(C)(C)C)c(Cl)c1 (single isomer, unassigned) [Example 233]	human RORγ (Homo sapiens)	7.16
CC(C)C1=CN(C2CN(C(=O)OC(C)(C)C)CC2C(=O)O)C(=O)N[C@@]1(C)c1ccc(CCC(C)(C)C)c(Cl)c1 (single isomer, unassigned)	human RORγ (Homo sapiens)	6.14
CCOC(=O)C1CNCC1N1C=C(C(C)C)[C@](C)(c2ccc(CCC(C)(C)C)c(Cl)c2)NC1=O (single isomer, unassigned) [Example 244]	human RORγ (Homo sapiens)	6.75
COCCC1=CN(CCC(=O)O)C(=O)N[C@@]1(C)c1ccc(C2=CCC(C)(C)CC2)c(Cl)c1	human RORγ (Homo sapiens)	7.85
CC(C)C1=CN(c2ccc(C(=O)O)cc2F)C(=O)N[C@@]1(C)c1ccc(CCC(C)(C)C)c(Cl)c1	human RORγ (Homo sapiens)	8.05
CC(C)(C)CCc1ccc([C@]2(C)NC(=O)N(CCC(N)=O)C=C2[C@H]2C[C@@H](C(=O)O)C2)cc1Cl	human RORγ (Homo sapiens)	6.39
CC(C)(C)CCc1ccc([C@]2(C)NC(=O)N(C3CC(C)(C)C3)C=C2[C@H]2C[C@@H](C(=O)O)C2)cc1Cl	human RORγ (Homo sapiens)	7.89

P: COC[C@H]1C[C@H](N2C=C(C(C)(C)CCC(=O)O)[C@](C)(c3ccc(CCC(C)(C)C)c(Cl)c3)NC2=O)C1
Q: CC(C)C1=CN(C2CCCC(C(=O)O)C2)C(=O)N[C@@]1(C)c1ccc(CCC(C)(C)C)c(Cl)c1 (single isomer, unassigned) [Example 256]
In: // task: argmin of pEC50 over [ P , Q ] Write down the label attached to your selection.
Out: Q
(Q: 7.66, P: 7.92)
